Just for reference, patent US20240376094A2 is where these values come from.

- study-target: Bcl-xL (Homo sapiens, UniProt Q07817)
- Construct: Measured levels of Bcl-xL protein of HCT116 cells treated with the tested compounds; host or cells: HCT116
- Sequence (Q07817 whole entry): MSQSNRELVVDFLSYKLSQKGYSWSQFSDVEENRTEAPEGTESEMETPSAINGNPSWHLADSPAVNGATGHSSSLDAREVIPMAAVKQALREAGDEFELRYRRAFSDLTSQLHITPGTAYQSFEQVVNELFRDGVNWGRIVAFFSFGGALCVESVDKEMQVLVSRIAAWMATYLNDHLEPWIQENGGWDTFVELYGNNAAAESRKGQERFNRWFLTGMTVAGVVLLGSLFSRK
- protocol: HCT116 Bcl-xL degradation, capillary-based immunoassay (WES)
- Assay type: cell-based
- test-context: HCT-116; HCT116, 10 nM, 24 h; % of untreated cells
assay-metric: remaining activity at 0.01 µM (%)

Cc1c(Nc2nc3ccccc3s2)nnc2c1CCCN2c1ccc(-c2cnn(CC34CC5(C)CC(C)(C3)CC(OCCN(C)CCOCCOCCOCCOCCNc3cccc6c3C(=O)N(C3CCC(=O)NC3=O)C6=O)(C5)C4)c2C)c(C(=O)O)n1 (centres unmarked) [Example 132]	108
Cc1cc(N(CCCCCn2cc(COCCOCCNc3cccc4c3C(=O)N(C3CCC(=O)NC3=O)C4=O)nn2)c2ccc(-c3cnn(CC45CC6(C)CC(C)(C4)CC(OCCN(C)C)(C6)C5)c3C)c(C(=O)O)n2)nnc1Nc1nc2ccccc2s1 (centres unmarked) [Example 61]	46

====

- study-target: HiBiT-tagged BCL-xL (Homo sapiens, UniProt Q07817)
- Construct: expressed in transfected cells; host or cells: NCI-H1650 (ATCC No. CRL-5883), engineered HiBiT cell line
- protocol: NCI-H1650 BCL-xL protein levels, Nano-Glo HiBiT Lytic Detection
- Assay type: cell-based
- test-context: NCI-H1650 expressing HiBiT-tagged BCL-xL, overnight incubation, read-out: Bcl-xl HIBIT NCIH1650 DC50
assay-metric: DC50

Cc1ncsc1-c1ccc(CNC(=O)[C@@H]2C[C@@H](O)CN2C(=O)[C@@H](NC(=O)C2(F)CC2)C(C)(C)SCCCCCCCCCCCCCN(C)CCOC23CC4(C)CC(C)(CC(Cn5ncc(-c6ccc(N7CCCc8c7nnc(Nc7nc9ccccc9s7)c8C)nc6C(=O)O)c5C)(C4)C2)C3)cc1 [Example 118]	> 1670 nM
Cc1ncsc1-c1ccc([C@H](C)NC(=O)[C@@H]2C[C@@H](O)CN2C(=O)[C@@H](NC(=O)CCC(=O)N2CCC[C@@H](NC(=O)c3nc(N4CCCc5c4nnc(Nc4nc6ccccc6s4)c5C)ccc3-c3cnn(CC45CC6(C)CC(C)(C4)CC(OCCN4CCCC4)(C6)C5)c3C)C2)C(C)(C)C)cc1 [Example 171]	> 1670 nM

====

Reported values of remaining activity at 0.01 µM for individual entries
- study-target: Bcl-xL (Homo sapiens)
- Construct: Measured levels of Bcl-xL protein of HCT116 cells treated with the tested compounds; host or cells: HCT116
- protocol: HCT116 Bcl-xL degradation, capillary-based immunoassay (WES)
- Type: cell-based
- test-context: HCT-116; HCT116, 10 nM, 24 h; % of untreated cells
assay-metric: remaining activity at 0.01 µM (%)

Cc1ncsc1-c1ccc([C@H](C)NC(=O)C2C[C@@H](O)CN2C(=O)C(NC(=O)CCCCCCC(=O)N2CCN(CC#Cc3ccc(OCCCc4sc(N5CCCc6c5nnc(Nc5nc7ccccc7s5)c6C)nc4C(=O)O)c(F)c3)CC2)C(C)(C)C)cc1 (stereo in doubt)	7
Cc1c(Nc2nc3ccccc3s2)nnc2c1CCCN2c1ccc(-c2cnn(CC34CC5(C)CC(C)(C3)CC(OCCN(C)CCOCCOCCNc3cccc6c3C(=O)N(C3CCC(=O)NC3=O)C6=O)(C5)C4)c2C)c(C(=O)O)n1 (stereo not shown)	69
Cc1cc(N(CCCCCn2cc(COCCOCCOCC(=O)Nc3cccc4c3CN(C3CCC(=O)NC3=O)C4=O)nn2)c2ccc(-c3cnn(CC45CC6(C)CC(C)(C4)CC(OCCN(C)C)(C6)C5)c3C)c(C(=O)O)n2)nnc1Nc1nc2ccccc2s1 (stereo not shown)	81
Cc1c(Nc2nc3ccccc3s2)nnc2c1CCCN2c1ccc(-c2cnn(CC34CC5(C)CC(C)(C3)CC(OCCN(C)CCOCCOCCOCCOCCOCCNc3cccc6c3C(=O)N(C3CCC(=O)NC3=O)C6=O)(C5)C4)c2C)c(C(=O)O)n1 (stereo not shown)	79

====

- study-target: Bcl-xL (Homo sapiens, UniProt Q07817)
- Construct: Measured levels of Bcl-xL protein of HCT116 cells treated with the tested compounds; host or cells: HCT116
- protocol: HCT116 Bcl-xL degradation, capillary-based immunoassay (WES)
- Assay type: cell-based
- test-context: HCT116, 24 h, 9-point serial dilution
Reported values of DC50 for individual entries
assay-metric: DC50

Cc1ncsc1-c1ccc([C@H](C)NC(=O)[C@@H]2C[C@@H](O)CN2C(=O)[C@@H](NC(=O)CCCCCCNC(=O)c2nc(N3CCCc4c3nnc(Nc3nc5ccccc5s3)c4C)ccc2-c2cnn(CC34CC5(C)CC(C)(C3)CC(OCCN3CCCC3)(C5)C4)c2C)C(C)(C)C)cc1 [Example 120]	1.68 nM
Cc1ncsc1-c1ccc([C@H](C)NC(=O)[C@@H]2C[C@@H](O)CN2C(=O)[C@@H](NC(=O)CCOCCOCCN(C)CCOC23CC4(C)CC(C)(CC(Cn5ncc(-c6ccc(N7CCCc8c7nnc(Nc7nc9ccccc9s7)c8C)nc6C(=O)O)c5C)(C4)C2)C3)C(C)(C)C)cc1 [Example 173]	> 316 nM
Cc1c(Nc2nc3ccccc3s2)nnc2c1CCCN2c1ccc(-c2cnn(CC34CC5(C)CC(C)(C3)CC(OCCN(C)CCCCCCCCC(=O)N3CCC(c6ccc7c(c6)CN(C6CCC(=O)NC6=O)C7=O)CC3)(C5)C4)c2C)c(C(=O)O)n1 (stereo not shown) [Example 71]	> 316 nM
Cc1ncsc1-c1ccc([C@H](C)NC(=O)[C@@H]2C[C@@H](O)CN2C(=O)[C@@H](NC(=O)CCCCCCCN(C)CCOC23CC4(C)CC(C)(CC(Cn5ncc(-c6ccc(N7CCCc8c7nnc(Nc7nc9ccccc9s7)c8C)nc6C(=O)O)c5C)(C4)C2)C3)C(C)(C)C)cc1 [Example 6]	2.94 nM
Cc1ncsc1-c1ccc(CNC(=O)[C@@H]2C[C@@H](O)CN2C(=O)[C@@H](NC(=O)C2(F)CC2)C(C)(C)SCCCCCCCCCCCN(C)CCOC23CC4(C)CC(C)(CC(Cn5ncc(-c6ccc(N7CCCc8c7nnc(Nc7nc9ccccc9s7)c8C)nc6C(=O)O)c5C)(C4)C2)C3)cc1 [Example 117]	1.17 nM
Cc1c(Nc2nc3ccccc3s2)nnc2c1CCCN2c1ccc(-c2cnn(CC34CC5(C)CC(C)(C3)CC(OCCN(C)CCCCCCCCCCCCC(=O)N3CCC(c6ccc7c(c6)CN(C6CCC(=O)NC6=O)C7=O)CC3)(C5)C4)c2C)c(C(=O)O)n1 (stereo not shown) [Example 78]	0.121 nM
Cc1ncsc1-c1ccc(CNC(=O)[C@@H]2C[C@@H](O)CN2C(=O)[C@@H](NC(=O)C2(F)CC2)C(C)(C)C)c(OCCCCCCCCN(C)CCOC23CC4(C)CC(C)(CC(Cn5ncc(-c6ccc(N7CCCc8c7nnc(Nc7nc9ccccc9s7)c8C)nc6C(=O)O)c5C)(C4)C2)C3)c1 [Example 138]	21.2 nM

====

- study-target: endogenous BCL-xL (Homo sapiens)
- Construct: endogenous in cells; host or cells: COR-L105 (ECACC No. 92031918); NCI-H1650 (ATCC No. CRL-5883)
- protocol: Degradation of endogenous BCL-xL in COR-L105 (ProteinSimple Jess)
- Assay type: cell-based
- test-context: COR-L105, 24 h, COR-L105, dose 300 nM, read-out: % BCL-xL vs. Untreated, COR-L105
Reported values of remaining activity at 0.3 µM for individual entries
assay-metric: remaining activity at 0.3 µM (%)

Cc1ncsc1-c1ccc(CNC(=O)[C@@H]2C[C@@H](O)CN2C(=O)[C@@H](NC(=O)CCCCCCC(=O)N2CCN(CC#Cc3ccc(OCCCc4sc(N5CCCc6c5nnc(Nc5nc7ccccc7s5)c6C)nc4C(=O)O)c(F)c3)CC2)C(C)(C)C)cc1 [Example 33]	64.8
Cc1ncsc1-c1ccc(CNC(=O)[C@@H]2C[C@@H](O)CN2C(=O)[C@@H](NC(=O)C2(F)CC2)C(C)(C)C)c(OCC(=O)N2CCN(CCOC34CC5(C)CC(C)(CC(Cn6ncc(-c7ccc(N8CCCc9c8nnc(Nc8nc%10ccccc%10s8)c9C)nc7C(=O)O)c6C)(C5)C3)C4)CC2)c1 [Example 50]	88
Cc1ncsc1-c1ccc(CNC(=O)[C@@H]2C[C@@H](O)CN2C(=O)[C@@H](NC(=O)C2(F)CC2)C(C)(C)C)c(OCC(=O)N(C)CCCCCN2CCN(CC#Cc3ccc(OCCCc4sc(N5CCCc6c5nnc(Nc5nc7ccccc7s5)c6C)nc4C(=O)O)c(F)c3)CC2)c1 [Example 54]	47.9

====

- study-target: Bcl-xL (Homo sapiens, UniProt Q07817)
- Construct: Measured levels of Bcl-xL protein of HCT116 cells treated with the tested compounds; host or cells: HCT116
- protocol: HCT116 Bcl-xL degradation, capillary-based immunoassay (WES)
- Assay type: cell-based
- test-context: HCT116, 24 h, 9-point serial dilution
Threshold-based label: DC50 under 0.7 nM gives true, DC50 not under 0.7 nM gives false.

Cc1ncsc1-c1ccc([C@H](C)NC(=O)[C@@H]2C[C@@H](O)CN2C(=O)[C@@H](NC(=O)CCCCCCCCCCCNC(=O)c2nc(N3CCCc4c3nnc(Nc3nc5ccccc5s3)c4C)ccc2-c2cnn(CC34CC5(C)CC(C)(C3)CC(OCCN3CCCC3)(C5)C4)c2C)C(C)(C)C)cc1	false
Cc1cc(N(CCCCCn2cc(COCCOCCOCCNc3cccc4c3C(=O)N(C3CCC(=O)NC3=O)C4=O)nn2)c2ccc(-c3cnn(C[C@@]45C[C@]6(C)C[C@](C)(C4)C[C@](OCCN(C)C)(C6)C5)c3C)c(C(=O)O)n2)nnc1Nc1nc2ccccc2s1 (stereo partly shown)	false
Cc1ncsc1-c1ccc(CNC(=O)[C@@H]2C[C@@H](O)CN2C(=O)[C@@H](NC(=O)C2(F)CC2)C(C)(C)C)c(OCCCCCCCCCCCCCCCCN(C)CCOC23CC4(C)CC(C)(CC(Cn5ncc(-c6ccc(N7CCCc8c7nnc(Nc7nc9ccccc9s7)c8C)nc6C(=O)O)c5C)(C4)C2)C3)c1	false
Cc1ncsc1-c1ccc([C@H](C)NC(=O)[C@@H]2CC(O)CN2C(=O)[C@@H](NC(=O)CCCCCCCCCCCCCCN(C)CCOC23CC4(C)CC(C)(CC(Cn5ncc(-c6ccc(N7CCCc8c7nnc(Nc7nc9ccccc9s7)c8C)nc6C(=O)O)c5C)(C4)C2)C3)C(C)(C)C)cc1 (stereo in doubt)	false
Cc1ncsc1-c1ccc(CNC(=O)[C@@H]2C[C@@H](O)CN2C(=O)[C@@H](NC(=O)C2(F)CC2)C(C)(C)SCCCCCCCCCCCCN(C)CCOC23CC4(C)CC(C)(CC(Cn5ncc(-c6ccc(N7CCCc8c7nnc(Nc7nc9ccccc9s7)c8C)nc6C(=O)O)c5C)(C4)C2)C3)cc1	true
Cc1c(Nc2nc3ccccc3s2)nnc2c1CCCN2c1ccc(-c2cnn(CC34CC5(C)CC(C)(C3)CC(OCCN(C)CCCCCCCCCOc3ccc6c(c3)C(=O)N(C3CCC(=O)NC3=O)C6=O)(C5)C4)c2C)c(C(=O)O)n1 (stereo not shown)	true
Cc1ncsc1-c1ccc([C@H](C)NC(=O)[C@@H]2C[C@@H](O)CN2C(=O)[C@@H](NC(=O)CCCCNC(=O)c2nc(N3CCCc4c3nnc(Nc3nc5ccccc5s3)c4C)ccc2-c2cnn(CC34CC5(C)CC(C)(C3)CC(OCCN3CCCC3)(C5)C4)c2C)C(C)(C)C)cc1	false
